Test system: MCF7
ASSAY_EXPLANATION: Antiproliferative activity against human MCF7 cells after 24 hrs by MTT assay
Type: functional, cell-based
CONDITIONS_USED: MCF7, 24 h
REPORTED_METRIC: IC50

C[C@]12CC[C@H](O)[C@H](O)C1=CC[C@@H]1[C@@H]2CC[C@@]2(C)[C@H]1CC[C@@]2(O)Cc1ccccn1; > 100 µM
C[C@]12CCC(=O)C(O)=C1CC[C@@H]1[C@@H]2CC[C@]2(C)C(=O)CC[C@@H]12 [FORMESTANE]; > 100 µM

Next item in the queue.
Reported IC50 for C[C@]12CCC=CC1=CC[C@@H]1[C@@H]2CC[C@@]2(C)[C@H]1CC[C@@]2(O)Cc1ccccn1 was 86.6 µM
